The reported numbers originate from patent US20150291593A1.

- experimental-target: p110γ (Homo sapiens, UniProt P48736)
- Sequence (P48736 whole entry, species assumed): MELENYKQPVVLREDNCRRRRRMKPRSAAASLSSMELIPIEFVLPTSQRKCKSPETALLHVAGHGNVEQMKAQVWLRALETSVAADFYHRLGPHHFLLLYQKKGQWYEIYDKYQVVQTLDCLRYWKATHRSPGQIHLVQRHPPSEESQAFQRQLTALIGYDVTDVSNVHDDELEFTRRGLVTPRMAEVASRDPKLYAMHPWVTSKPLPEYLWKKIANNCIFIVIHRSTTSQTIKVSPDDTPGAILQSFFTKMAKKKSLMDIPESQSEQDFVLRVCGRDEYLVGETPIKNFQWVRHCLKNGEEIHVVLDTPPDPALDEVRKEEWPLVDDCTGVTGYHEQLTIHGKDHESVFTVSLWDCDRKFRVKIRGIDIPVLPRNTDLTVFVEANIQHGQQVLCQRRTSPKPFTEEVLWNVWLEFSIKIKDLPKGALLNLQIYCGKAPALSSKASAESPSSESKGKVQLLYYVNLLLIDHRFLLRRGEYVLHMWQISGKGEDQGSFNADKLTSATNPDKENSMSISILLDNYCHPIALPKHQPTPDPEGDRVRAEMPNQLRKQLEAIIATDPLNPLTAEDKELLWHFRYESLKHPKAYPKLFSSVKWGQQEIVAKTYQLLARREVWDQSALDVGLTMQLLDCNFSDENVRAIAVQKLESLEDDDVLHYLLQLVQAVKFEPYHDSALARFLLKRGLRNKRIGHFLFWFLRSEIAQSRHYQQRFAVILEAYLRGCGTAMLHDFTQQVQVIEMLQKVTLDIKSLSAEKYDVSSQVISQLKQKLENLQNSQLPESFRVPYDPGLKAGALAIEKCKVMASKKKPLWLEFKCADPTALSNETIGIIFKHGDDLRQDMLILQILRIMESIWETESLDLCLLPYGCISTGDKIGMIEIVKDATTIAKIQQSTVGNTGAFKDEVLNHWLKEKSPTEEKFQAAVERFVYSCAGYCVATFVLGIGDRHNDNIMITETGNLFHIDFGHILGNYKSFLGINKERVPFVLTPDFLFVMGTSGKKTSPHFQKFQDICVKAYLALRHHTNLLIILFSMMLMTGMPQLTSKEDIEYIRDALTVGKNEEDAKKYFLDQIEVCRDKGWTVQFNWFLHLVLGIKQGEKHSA
pIC50: −log10 of the molar value.
Label y when pIC50 >= 7; otherwise n.

compound | label
N#Cc1cccc(-n2c([C@@H]3CCCN3c3ncnc4[nH]cc(C#N)c34)nn3cccc3c2=O)c1 | n
CC(Nc1nc(N)ncc1C#N)c1cn2ccc(F)c2c(=O)n1-c1ccccc1 (single isomer, unassigned) | y
N#Cc1cnc(N)nc1N1CCC1c1nn2ccc(Cl)c2c(=O)n1CC1CC1 (stereo not drawn) | n
CC(Nc1ncnc2[nH]cc(F)c12)c1cc2ncc(Cl)n2c(=O)n1-c1ccccc1 (single isomer, unassigned) | y
C[C@H]1CCN(c2ncnc3[nH]cc(C#N)c23)C1c1nn2ccc(Cl)c2c(=O)n1-c1ccccc1 (stereo partly drawn) | y
CC(Nc1ncnc2[nH]cnc12)c1cn2ccc(Cl)c2c(=O)n1-c1cc(F)cc(F)c1 (stereo not drawn) | y
